System: RAW264.7
Assay: Selectivity index, ratio of cytotoxic ED50 for mouse RAW264.7 cells to IC50 for LPS-induced nitric oxide synthesis in mouse RAW264.7 cells
Format: functional
Lab note: anything with Selectivity Index below 2 is marked Condition met; values at 2 or higher are marked Condition not met.

query: Check if Selectivity Index falls below 2 for Cc1c(O)c(C(=O)C(C)C)c(O)c2c1oc1c(C)c(O)c(C(=O)C(C)C)c(O)c12 .
result: Condition not met

query: Now give it for Cc1c(O)c(C(=O)C(C)C)c2oc3c(C(=O)C(C)C)c(O)c(C)c(O)c3c2c1O too.
result: Condition met

query: Now give it for CC[C@H](C)C(=O)c1c(O)c(C)c(O)c2c1oc1c(C(=O)C(C)C)c(O)c(C)c(O)c12 too.
result: Condition not met

query: Now give it for CC[C@H](C)C(=O)c1c(O)c(C)c2oc3c(C)c(O)c(C(=O)C(C)C)c(O)c3c2c1O too.
result: Condition not met

query: Now give it for CC[C@H](C)C(=O)c1c(O)c(C)c2oc3c(C)c(O)c(C(=O)CC(C)C)c(O)c3c2c1O too.
result: Condition met

query: Now give it for CC[C@H](C)C(=O)c1c(O)c(C)c(O)c2c1oc1c(C(=O)[C@@H](C)CC)c(O)c(C)c(O)c12 too.
result: Condition met

* * *

Test system: Staphylococcus epidermidis
Assay: Antibacterial activity against Staphylococcus epidermidis ATCC 35984 incubated overnight followed by compound transfer to TSB medium measured after overnight incubation by cell counting
Format: functional
reported.endpoint: MBC (µM)
Return type: number; implicit unit µM.

Worked examples follow.
Cc1c(O)c(C(=O)C(C)C)c2oc3c(C(=O)C(C)C)c(O)c(C)c(O)c3c2c1O; 13.2
CC[C@H](C)C(=O)c1c(O)c(C)c2oc3c(C)c(O)c(C(=O)CC(C)C)c(O)c3c2c1O; 1.9
CC[C@H](C)C(=O)c1c(O)c(C)c2oc3c(C)c(O)c(C(=O)C(C)C)c(O)c3c2c1O; 3.9
CC[C@H](C)C(=O)c1c(O)c(C)c(O)c2c1oc1c(C(=O)C(C)C)c(O)c(C)c(O)c12; 6
CC[C@H](C)C(=O)c1c(O)c(C)c(O)c2c1oc1c(C(=O)[C@@H](C)CC)c(O)c(C)c(O)c12; 3.7

# next compound below
query: Quick one: MBC for Cc1c(O)c(C(=O)C(C)C)c(O)c2c1oc1c(C)c(O)c(C(=O)C(C)C)c(O)c12 ?
result: 22.7

* * *

Tested on: Staphylococcus aureus
Assay: Antibacterial activity against Staphylococcus aureus ATCC 29213 after overnight incubation by broth microdilution method
Type: functional
Listed molecules paired with reported MIC
Return type: number; implicit unit µM.

Cc1c(O)c(C(=O)C(C)C)c2oc3c(C(=O)C(C)C)c(O)c(C)c(O)c3c2c1O; 26.5
CC[C@H](C)C(=O)c1c(O)c(C)c(O)c2c1oc1c(C(=O)[C@@H](C)CC)c(O)c(C)c(O)c12; 7.2
CC[C@H](C)C(=O)c1c(O)c(C)c2oc3c(C)c(O)c(C(=O)CC(C)C)c(O)c3c2c1O; 7.2
Cc1c(O)c(C(=O)C(C)C)c(O)c2c1oc1c(C)c(O)c(C(=O)C(C)C)c(O)c12; 2.7
CC[C@H](C)C(=O)c1c(O)c(C)c(O)c2c1oc1c(C(=O)C(C)C)c(O)c(C)c(O)c12; 12.1

# next molecule below
query: Quick one: MIC for CC[C@H](C)C(=O)c1c(O)c(C)c2oc3c(C)c(O)c(C(=O)C(C)C)c(O)c3c2c1O ?
result: 3.9

* * *

Test: Cytotoxicity against Swiss albino mouse 3T3 cells
Type: cell-based, NIH3T3
Conditions: read-out: ED50 (the source's name)
Listed compounds paired with reported CC50
Return type: number; implicit unit µM.

Worked examples follow.
CC[C@H](C)C(=O)c1c(O)c(C)c(O)c2c1oc1c(C(=O)[C@@H](C)CC)c(O)c(C)c(O)c12; 24.1
CC[C@H](C)C(=O)c1c(O)c(C)c(O)c2c1oc1c(C(=O)C(C)C)c(O)c(C)c(O)c12; 22.3
Cc1c(O)c(C(=O)C(C)C)c2oc3c(C(=O)C(C)C)c(O)c(C)c(O)c3c2c1O; 44
Cc1c(O)c(C(=O)C(C)C)c(O)c2c1oc1c(C)c(O)c(C(=O)C(C)C)c(O)c12; 15.3
CC[C@H](C)C(=O)c1c(O)c(C)c2oc3c(C)c(O)c(C(=O)CC(C)C)c(O)c3c2c1O; 7

# next compound below
query: Quick one: CC50 for CC[C@H](C)C(=O)c1c(O)c(C)c2oc3c(C)c(O)c(C(=O)C(C)C)c(O)c3c2c1O ?
result: 9.4

* * *

Listed compounds paired with reported IC50
Test: Antiinflammatory activity in Swiss albino mouse 3T3 cells assessed as inhibition of calcium ionophore A23187-induced PGE2 synthesis incubated for 3 hrs prior to calcium ionophore A23187-challenge measured after 15 mins by enzyme immunoassay
Assay type: functional, cell-based
Settings: NIH3T3

Worked examples follow.
CC[C@H](C)C(=O)c1c(O)c(C)c2oc3c(C)c(O)c(C(=O)CC(C)C)c(O)c3c2c1O; 3.4 µM
CC[C@H](C)C(=O)c1c(O)c(C)c2oc3c(C)c(O)c(C(=O)C(C)C)c(O)c3c2c1O; 6 µM
Cc1c(O)c(C(=O)C(C)C)c2oc3c(C(=O)C(C)C)c(O)c(C)c(O)c3c2c1O; > 200 µM
Cc1c(O)c(C(=O)C(C)C)c(O)c2c1oc1c(C)c(O)c(C(=O)C(C)C)c(O)c12; 4.5 µM
CC[C@H](C)C(=O)c1c(O)c(C)c(O)c2c1oc1c(C(=O)[C@@H](C)CC)c(O)c(C)c(O)c12; > 200 µM

# next compound below
query: Quick one: IC50 for CC[C@H](C)C(=O)c1c(O)c(C)c(O)c2c1oc1c(C(=O)C(C)C)c(O)c(C)c(O)c12 ?
result: > 200 µM

* * *

Test system: Staphylococcus epidermidis
Assay: Antibacterial activity against Staphylococcus epidermidis ATCC 35984 after overnight incubation by broth microdilution method
Assay type: functional
reported.endpoint: MIC (µM)
Return type: number; implicit unit µM.

CC[C@H](C)C(=O)c1c(O)c(C)c(O)c2c1oc1c(C(=O)C(C)C)c(O)c(C)c(O)c12; 6

query: Quick one: MIC for CC[C@H](C)C(=O)c1c(O)c(C)c2oc3c(C)c(O)c(C(=O)C(C)C)c(O)c3c2c1O ?
result: 1.9

query: Now give it for Cc1c(O)c(C(=O)C(C)C)c(O)c2c1oc1c(C)c(O)c(C(=O)C(C)C)c(O)c12 too.
result: 2.7

query: Now give it for Cc1c(O)c(C(=O)C(C)C)c2oc3c(C(=O)C(C)C)c(O)c(C)c(O)c3c2c1O too.
result: 13.2

query: Now give it for CC[C@H](C)C(=O)c1c(O)c(C)c(O)c2c1oc1c(C(=O)[C@@H](C)CC)c(O)c(C)c(O)c12 too.
result: 3.7

query: Now give it for CC[C@H](C)C(=O)c1c(O)c(C)c2oc3c(C)c(O)c(C(=O)CC(C)C)c(O)c3c2c1O [RHODOMYRTOXIN C] too.
result: 1.9
